Experiment: Fenebrutinib concentration in CSF and plasma after 12 weeks of continuous administration (exploratory endpoint)
Type: in vivo, human
Conditions: human, csf, po, 200 mg, 11 patients; following 12 weeks of continuous administration; read-out: mean fenebrutinib CSF concentration
Text: Exploratory Endpoints: Exploratory endpoints included the total number of new T1-hypointense lesions on MRI at weeks 4, 8, and 12; the fenebrutinib concentration in CSF collected at baseline and at or after Week 12; and plasma pharmacokinetics. Results: Exploratory Endpoint-Evaluation of CSF: Cerebrospinal samples (CSF) were taken from 11 patients following 12 weeks of continuous fenebrutinib administration. A blood plasma sample was taken at the same time for 4 of the 11 patients. […]
reported-property: concentration at 2016 h (ng/mL)
Your answer is read as ng/mL, so omit the unit and give the number.

Prompt: Quick one: concentration at 2016 h of C[C@H]1CN(C2COC2)CCN1c1ccc(Nc2cc(-c3ccnc(N4CCn5c(cc6c5CC(C)(C)C6)C4=O)c3CO)cn(C)c2=O)nc1 [Fenebrutinib] ?
Response: 43.1

====

experiment: Fenebrutinib concentration in CSF and plasma after 12 weeks of continuous administration (exploratory endpoint); format: in vivo, human; details: human, csf, po, 200 mg; n = 4 patients; after 12 weeks of continuous administration; total plasma; read-out: CSF:plasma ratio, Median (min, max)
reported-property: Kp at 2016 h
Form: value (number only, do not type unit).

Prompt: Would you mind telling me what Kp at 2016 h value was observed for C[C@H]1CN(C2COC2)CCN1c1ccc(Nc2cc(-c3ccnc(N4CCn5c(cc6c5CC(C)(C)C6)C4=O)c3CO)cn(C)c2=O)nc1 ?
Response: 0.061
